Where do the numbers come from? From the supplement of paper PMC11246515.

Catalogue of total protein half-life in vivo values
Test name: total protein half-life in vivo (active degradation + dilution); higher = more stable protein
Condition parameters: E. coli NCM3722 delta-clpP delta-lon delta-hslV; growth: N-lim chemostat; doubling time 6 h
Measured parameter: total protein half-life in vivo (h)

• MVSRKRNSVIYRFASLLLVLMLSACSALQGTPQPAPPVTDHPQEIRRDQTQGLQRIGSVSTMVRGSPDDALAEIKAKAVAAKADYYVVVMVDETIVTGQWYSQAILYRK = 5.47
• MIRQRRRALTPEQQQEMGQQAATRMMTYPPVVMAHTVAVFLSFDGELDTQPLIEQLWRAGKRVYLPVLHPFSAGNLLFLNYHPQSELVMNRLKIHEPKLDVRDVLPLSRLDVLITPLVAFDEYGQRLGMGGGFYDRTLQNWQHYKTQPVGYAHDCQLVEKLPVEEWDIPLPAVVTPSKVWEW [P0AC28] = 4.93
• MRTTIAVVLGAISLTSAFVFADKPDVARSANDEVSTLFFGHDDRVPVNDTTQSPWDAVGQLETASGNLCTATLIAPNLALTAGHCLLTPPKGKADKAVALRFVSNKGLWRYEIHDIEGRVDPTLGKRLKADGDGWIVPPAAAPWDFGLIVLRNPPSGITPLPLFEGDKAALTAALKAAGRKVTQAGYPEDHLDTLYSHQNCEVTGWAQTSVMSHQCDTLPGDSGSPLMLHTDDGWQLIGVQSSAPAAKDRWRADNRAISVTGFRDKLDQLSQK = 5.08
• MNNSAFTFQTLHPDTIMDALFEHGIRVDSGLTPLNSYENRVYQFQDEDRRRFVVKFYRPERWTADQILEEHQFALQLVNDEVPVAAPVAFNGQTLLNHQGFYFAVFPSVGGRQFEADNIDQMEAVGRYLGRMHQTGRKQLFIHRPTIGLNEYLIEPRKLFEDATLIPSGLKAAFLKATDELIAAVTAHWREDFTVLRLHGDCHAGNILWRDGPMFVDLDDARNGPAVQDLWMLLNGDKAEQRMQLETIIEAYEEFSEFDTAEIGLIEPLRAMRLVYYLAWLMRRWADPAFPKNFPWLTGEDYWLRQTATFIEQAKVLQEPPLQLTPMY [P0C0K3] = 3.88
• MIELVIVSRLLEYPDAALWQHQQEMFEAIAASKNLPKEDAHALGIFLRDLTTMDPLDAQAQYSELFDRGRATSLLLFEHVHGESRDRGQAMVDLLAQYEQHGLQLNSRELPDHLPLYLEYLAQLPQSEAVEGLKDIAPILALLSARLQQRESRYAVLFDLLLKLANTAIDSDKVAEKIADEARDDTPQALDAVWEEEQVKFFADKGCGDSAITAHQRRFAGAVAPQYLNITTGGQH [P0AF26] = 3.83

---

Test name: total protein half-life in vivo (active degradation + dilution); higher = more stable protein
Condition parameters: E. coli NCM3722 delta-lon; growth: N-lim chemostat; doubling time 6 h
Measured parameter: total protein half-life in vivo (h)

* MMKTVKHLLCCAIAASALISTGVHAASWKDALSSAASELGNQNSTTQEGGWSLASLTNLLSSGNQALSADNMNNAAGILQYCAKQKLASVTDAENIKNQVLEKLGLNSEEQKEDTNYLDGIQGLLKTKDGQQLNLDNIGTTPLAEKVKTKACDLVLKQGLNFIS | 3.02
* MSEMIYGIHAVQALLERAPERFQEVFILKGREDKRLLPLIHALESQGVVIQLANRQYLDEKSDGAVHQGIIARVKPGRQYQENDLPDLIASLDQPFLLILDGVTDPHNLGACLRSADAAGVHAVIVPKDRSAQLNATAKKVACGAAESVPLIRVTNLARTMRMLQEENIWIVGTAGEADHTLYQSKMTGRLALVMGAEGEGMRRLTREHCDELISIPMAGSVSSLNVSVATGICLFEAVRQRS | 5.55
* MSHLAELVASAKAAISQASDVAALDNVRVEYLGKKGHLTLQMTTLRELPPEERPAAGAVINEAKEQVQQALNARKAELESAALNARLAAETIDVSLPGRRIENGGLHPVTRTIDRIESFFGELGFTVATGPEIEDDYHNFDALNIPGHHPARADHDTFWFDTTRLLRTQTSGVQIRTMKAQQPPIRIIAPGRVYRNDYDQTHTPMFHQMEGLIVDTNISFTNLKGTLHDFLRNFFEEDLQIRFRPSYFPFTEPSAEVDVMGKNGKWLEVLGCGMVHPNVLRNVGIDPEVYSGFAFGMGMERLTMLRYGVTDLRSFFENDLRFLKQFK | 6.07
* MKKNQFLKESDVTAESVFFMKRRQVLKALGISATALSLPHAAHADLLSWFKGNDRPPAPAGKALEFSKPAAWQNNLPLTPADKVSGYNNFYEFGLDKADPAANAGSLKTDPWTLKISGEVAKPLTLDHDDLTRRFPLEERIYRMRCVEAWSMVVPWIGFPLHKLLALAEPTSNAKYVAFETIYAPEQMPGQQDRFIGGGLKYPYVEGLRLDEAMHPLTLMTVGVYGKALPPQNGAPVRLIVPWKYGFKGIKSIVSIKLTRERPPTTWNLAAPDEYGFYANVNPYVDHPRWSQATERFIGSGGILDVQRQPTLLFNGYAAQVASLYRGLDLRENF | 5.98
* MINDIKWVQAQRKATDWRQAVEIATRPLVAYGAAQPCYVNGIIENTLNWGPYYLIAPGIALPHARPEQGANYNQVSITTLRTPVAFGNEECDPVWLLLCVSATDANAHILTIQRISQFIDSPQRLTAVGNASTDDALFALVSG | 4.24
